# methodNotes: Transepithelial transfer
# Type: in vitro ADME, human
# particulars: human, Caco-2, pH 7.4
measuredEndpoint: recovery at 4 h, 10 μM (%)
The response must be a number in % with no trailing unit.

Req: Fill in the blank: the reported recovery at 4 h, 10 μM of O=C(/C=C/c1ccc(O)c(O)c1)O[C@H](Cc1ccc(O)c(O)c1)C(=O)O [RA, Rosmarinic acid] is ____.
Resp: 86.7
